Listed next: entries and their corresponding chemical recovery.
- protocol.text: chemical recovery from spiked human plasma; higher = better extraction
- stated.conditions: pooled human plasma; extraction method: SPE only (HLB 96-well)
Write down the numeric answer in % and omit the unit.

{"columns": ["molecule", "value"],
 "data": [
  ["CCCCOP(=O)(O)OCCCC [Di-n-butyl-phosphate]", 40.5]
]}

[ask] chemical recovery for c1ccc2sc(N3CCOCC3)nc2c1 [2(4-morpholinyl)benzothiazole] ?
[reply] 39.6

[ask] chemical recovery for O=P1(NCCCl)OCCCN1CCCl (stereo not drawn) [Ifosfamide] ?
[reply] 39.4

====

- protocol.text: chemical recovery by SPE of plasma after PDMS sampling; higher = better extraction
- stated.conditions: pooled human plasma; extraction method: HLB SPE of plasma after PES; equilibration time (d): 3
measured.endpoint: chemical recovery by SPE of plasma (%)
Write down the numeric answer in % and omit the unit.

Before answering, review these 8 worked examples.
{"columns": ["compound", "chemical recovery by SPE of plasma [%]"],
 "data": [
  ["O=S(=O)(c1ccccc1)c1ccccc1", 9.14],
  ["Cc1cccc(C)c1N(Cn1cccn1)C(=O)C[S+](C)[O-] (stereo unspecified)", 57.3],
  ["Cc1ccc(S(N)(=O)=O)cc1 [p-Toluenesulfonamide]", 55.4],
  ["N#Cc1nn(-c2c(Cl)cc(C(F)(F)F)cc2Cl)c(N)c1S(=O)(=O)C(F)(F)F", 34.1],
  ["Nc1cnn(-c2ccccc2)c(=O)c1Cl", 57.1],
  ["CC(CCl)OP(=O)(OC(C)CCl)OC(C)CCl (stereo unspecified) [Tris(1-chloro-2-propyl)phosphate]", 1.7],
  ["Nc1cn[nH]c(=O)c1Cl", 2.06],
  ["Cc1ccc(S(=O)(=O)O)c(C)c1", 36.3]
]}

[ask] chemical recovery by SPE of plasma for NC(=O)N1c2ccccc2CC(O)c2ccccc21 (stereo unspecified) [10,11-Dihydro-10-hydroxycarbamazepine] ?
[reply] 60.8

[ask] chemical recovery by SPE of plasma for O=C(Nc1ccc(Cl)cc1)Nc1ccc(Cl)c(Cl)c1 ?
[reply] 28.2

[ask] chemical recovery by SPE of plasma for CO/C=C(/C(=O)OC)c1ccccc1Oc1cc(Oc2ccccc2C#N)ncn1 ?
[reply] 3.88

Sourced from the supplement of paper PMC10702517
